- experimentalProtocol: in vivo
- testConditions: male, po, 5 mg/kg
quantityKind: Tmax (min)
Answers are plain numbers, in min.

Task: Could you tell me which Tmax is on file for O=C(/C=C\n1cnc(-c2cc(C(F)(F)F)cc(C(F)(F)F)c2)n1)NNc1ccccn1 [verdinexor] ?
Result: 21.7

###

- experimentalProtocol: in vivo
- testConditions: male, po, 5 mg/kg
quantityKind: AUC(0-t) (ng·h/mL)
Numbers only, in ng·h/mL.

Task: Could you tell me which AUC(0-t) is on file for O=C(/C=C\n1cnc(-c2cc(C(F)(F)F)cc(C(F)(F)F)c2)n1)NNc1ccccn1 [verdinexor] ?
Result: 3510
